target: T1, his-tagged hTfR1 (Acro Biosystems p/n CD1-H5243) (human, UniProt P02786 89-760); experiment: SPR, Biacore X100, His-tagged TfR1 captured by anti-His
T1 construct: Bought reagent of the SPR assay
T1 sequence (P02786 89-760 limits assumed): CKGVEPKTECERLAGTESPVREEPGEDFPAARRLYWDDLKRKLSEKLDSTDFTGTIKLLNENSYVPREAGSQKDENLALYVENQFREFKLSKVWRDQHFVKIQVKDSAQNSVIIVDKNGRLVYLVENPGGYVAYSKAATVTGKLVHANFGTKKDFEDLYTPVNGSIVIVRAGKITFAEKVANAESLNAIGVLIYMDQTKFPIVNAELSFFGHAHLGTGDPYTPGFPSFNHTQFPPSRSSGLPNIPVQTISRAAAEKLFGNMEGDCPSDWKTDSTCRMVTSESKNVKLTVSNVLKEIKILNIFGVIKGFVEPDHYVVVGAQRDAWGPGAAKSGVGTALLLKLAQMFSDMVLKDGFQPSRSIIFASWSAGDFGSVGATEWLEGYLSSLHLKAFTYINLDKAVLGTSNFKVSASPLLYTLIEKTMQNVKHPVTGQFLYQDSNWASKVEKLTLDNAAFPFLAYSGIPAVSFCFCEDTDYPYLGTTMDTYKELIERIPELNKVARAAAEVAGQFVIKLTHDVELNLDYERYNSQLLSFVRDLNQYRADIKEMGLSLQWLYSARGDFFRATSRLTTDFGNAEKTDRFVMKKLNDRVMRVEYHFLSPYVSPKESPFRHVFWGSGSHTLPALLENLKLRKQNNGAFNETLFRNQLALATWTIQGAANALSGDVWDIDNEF
Measure: pKd
Numbers only, as −log10 of the molar value.

{"columns": ["Binder", "pKd"],
 "data": [
  ["Fab0074 (Fab, V domains shown) VH: EVQLVESGGGLVQPGGSLRLSCATSGYTFKSYWMHWVRQAPGKGLEWVAEINPTNGRTNYIEKFKSRITLSVDKSKSTVYLQMNSLRAEDTAVYYCARGTRAYHYWGQGTLVTVSS VL: DIQLTQSPSSLSASVGDRVTITCRASDGLYSNLAWYQQKPGKAPKLLIYDAKNLASGVPSRFSGSGSGTDYTLTISSLQPEDFATYYCQHFWGTPLTFGQGTKVEIKR", 9.33],
  ["Fab0002 (Fab, V domains shown) VH: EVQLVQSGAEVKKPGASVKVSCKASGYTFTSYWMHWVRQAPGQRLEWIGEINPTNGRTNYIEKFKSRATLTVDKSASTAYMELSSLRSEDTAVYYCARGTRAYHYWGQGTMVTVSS VL: DIQMTQSPSSLSASVGDRVTITCRASDNLYSNLAWYQQKPGKSPKLLVYDATNLADGVPSRFSGSGSGTDYTLTISSLQPEDFATYYCQHFWGTPLTFGQGTKVEIKR", 8.11]
]}

# map each binder to its pKd
1. Fab0065 (Fab, V domains shown) VH: EVQLVESGGGLVQPGGSLRLSCATSGYTFTSYWVHWVRQAPGKGLEWVAEINPTNGRSNYIEKFKSRITLSVDKSKSTVYLQMNSLRAEDTAVYYCARGTRAYHYWGQGTLVTVSS VL: DIQLTQSPSSLSASVGDRVTITCRASDNLYRNLAWYQQKPGKAPKLLIYDATKLASGVPSRFSGSGSGTDYTLTISSLQPEDFATYYCQHFWGTPLTFGQGTKVEIKR
2. Fab0068 (Fab, V domains shown) VH: EVQLVESGGGLVQPGGSLRLSCATSGYTFTSYWVHWVRQAPGKGLEWVAEINPTNGRVNYIEKFKSRITLSVDKSKSTVYLQMNSLRAEDTAVYYCARGTRAYHYWGQGTLVTVSS VL: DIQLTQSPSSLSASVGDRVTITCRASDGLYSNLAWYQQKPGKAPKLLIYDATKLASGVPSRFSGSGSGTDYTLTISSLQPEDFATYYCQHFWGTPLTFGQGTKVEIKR
3. Fab0064 (Fab, V domains shown) VH: EVQLVESGGGLVQPGGSLRLSCATSGYTFTSYWMHWVRQAPGKGLEWVAEINPTNGRVNYIEKFKSRITLSVDKSKSTVYLQMNSLRAEDTAVYYCARGTRAYHYWGQGTLVTVSS VL: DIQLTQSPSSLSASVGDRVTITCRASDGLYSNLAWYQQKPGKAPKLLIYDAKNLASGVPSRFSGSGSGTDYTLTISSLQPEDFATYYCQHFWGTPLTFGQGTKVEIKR
4. Fab0069 (Fab, V domains shown) VH: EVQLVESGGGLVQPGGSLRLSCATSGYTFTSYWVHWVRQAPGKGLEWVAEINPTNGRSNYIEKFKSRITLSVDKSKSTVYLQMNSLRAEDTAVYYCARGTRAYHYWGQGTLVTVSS VL: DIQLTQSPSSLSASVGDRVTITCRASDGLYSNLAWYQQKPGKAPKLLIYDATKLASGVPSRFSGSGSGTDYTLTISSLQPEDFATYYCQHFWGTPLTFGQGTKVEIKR

Ans:
[9.38, 9.01, 9.12, 9.11]

# map each binder to its pKd
1. Fab0063 (Fab, V domains shown) VH: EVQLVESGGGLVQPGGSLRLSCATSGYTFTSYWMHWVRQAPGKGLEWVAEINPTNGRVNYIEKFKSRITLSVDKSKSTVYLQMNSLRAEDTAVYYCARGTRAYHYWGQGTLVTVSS VL: DIQLTQSPSSLSASVGDRVTITCRASDGLYSNLAWYQQKPGKAPKLLIYDATRLASGVPSRFSGSGSGTDYTLTISSLQPEDFATYYCQHFWGTPLTFGQGTKVEIKR
2. Fab0061 (Fab, V domains shown) VH: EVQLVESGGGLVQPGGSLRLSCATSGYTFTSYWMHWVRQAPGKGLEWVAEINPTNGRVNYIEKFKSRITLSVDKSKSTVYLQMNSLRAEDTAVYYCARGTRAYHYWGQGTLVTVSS VL: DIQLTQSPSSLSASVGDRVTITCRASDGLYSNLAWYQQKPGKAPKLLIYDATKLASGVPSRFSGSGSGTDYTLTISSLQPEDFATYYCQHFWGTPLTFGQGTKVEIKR
3. Fab0073 (Fab, V domains shown) VH: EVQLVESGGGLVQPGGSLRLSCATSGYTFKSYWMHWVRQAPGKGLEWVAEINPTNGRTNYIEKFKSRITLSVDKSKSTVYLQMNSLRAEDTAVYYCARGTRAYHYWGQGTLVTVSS VL: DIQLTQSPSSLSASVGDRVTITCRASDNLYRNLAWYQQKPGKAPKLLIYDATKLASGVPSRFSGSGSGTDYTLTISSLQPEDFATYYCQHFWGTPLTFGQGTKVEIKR
4. Fab0072 (Fab, V domains shown) VH: EVQLVESGGGLVQPGGSLRLSCATSGYTFNSYWMHWVRQAPGKGLEWVAEINPTNGRFNYIEKFKSRITLSVDKSKSTVYLQMNSLRAEDTAVYYCARGTRAYHYWGQGTLVTVSS VL: DIQLTQSPSSLSASVGDRVTITCRASDNLYRNLAWYQQKPGKAPKLLIYDARNLASGVPSRFSGSGSGTDYTLTISSLQPEDFATYYCQHFWGTPLTFGQGTKVEIKR

Ans:
1. 9.22
2. 9.15
3. 9.45
4. 9.48
